# Test system: M14 melanoma
# testMethodNotes: NCI tumour cell line growth inhibition, 48 h; in the data active = GI50 below about 0.43 µM; inactive = the rest
Possible outcomes: active, inactive

* COc1cc2c(cc1O)CCN[C@@]21CS[C@H]2c3c(OC(C)=O)c(C)c4c(c3C(COC1=O)N1C2C2NC(Cc3cc(C)c(OC)c(O)c32)[C@@H]1O)OCO4 (stereo partly specified) | inactive
* CN1CCN(Cc2ccc(NC(=O)c3cncc(C#Cc4c(N)ncc5ccccc45)c3)cc2C(F)(F)F)CC1 | active
* Cc1cnc(C(=O)Nc2nc3ccc(S(=O)(=O)Nc4ccc(C(C)(C)C)cc4)cc3[nH]2)cn1 | active
* COc1cc(/C=N\Nc2ccccc2)ccc1OC(=O)c1ccccc1 | inactive
* O=C(NCCN1CCOCC1)c1cc2c(Oc3ccc(NC(=O)C4(C(=O)Nc5ccc(F)cc5)CC4)cc3)ccnc2[nH]1 | inactive
* CCCCCn1sc(=O)n(Cc2ccc(CNC(=O)C(C)c3ccc(CC(C)C)cc3)cc2)c1=O (stereo unspecified) | inactive
* COC(=O)c1sc(-n2cnc3cc(OC)c(OC)cc32)cc1OCc1ccccc1C(F)(F)F | inactive
* O=C(O)CCCCCNCc1cc2cc3c(cc2c2cc(OCc4ccccc4)ccc12)OCO3 | inactive
* O=C(c1ccccc1)c1nn(-c2cccc(Cl)c2)c2nc3nc(-c4ccccc4)cc(=O)n3nc12 | inactive
* CCOC(=O)c1c(CN2CCCCC2)nc2ccc(Cl)cc2c1-c1ccccc1 | inactive
* Oc1ccccc1/C=N\NC(=S)Nc1ccc(F)cc1 | inactive
